From: the MegaScale stability set (Tsuboyama et al. 2023)

B1: 1ZHC (parent)
chain: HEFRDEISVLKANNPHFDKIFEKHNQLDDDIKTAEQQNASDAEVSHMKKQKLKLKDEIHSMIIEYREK

- Variants of: B1
- methodNotes: folding stability dG (cDNA display proteolysis); higher = more stable
- appliedConditions: PBS, room temperature
Decision: folding stability dG compared against 1 kcal/mol; not below it gives True, below it gives False.

chainSequence	category
HEFRDEISVLKANNPHFDKIFEKHNQLDDDIKTAEQQNASDAEVSHMKKQKLKLKDEIHSHIIEYREK [M61H]	False
HEFRDEISVLKANNPHFDKIFEKHNQLDDDIKTAERQNASDAEVSHMKKQKLKLKDEIHSMIIEYREK [Q36R]	True
HEFRDEISVLKANNPHFDKIFEKHNQLDDDIKTAEQQNASDAEVSHMKKQKLKLKDEIHSWIIEYREK [M61W]	False
HEFRDEISVLKANNPHFDKIFEFHNQLDDDIKTAEQQNASDAEVSHMKKQKLKLKDEIHSMIIEYREK [K23F]	False
HEFRDEISVLKANNPHFDKIFEKHNQLDDDIKTAEQQNASDAEVSHMKKQKLKLKDEIHSMIIEYREW [K68W]	False
HEFRDEISVLKANNPHFDKIFEKHNQLIDDIKTAEQQNASDAEVSHMKKQKLKLKDEIHSMIIEYREK [D28I]	True
HEFRDEISVLKANNPHFDKIFEKHNQLDDDIKTAEQQNASDAEVSHMKKIKLKLKDEIHSMIIEYREK [Q50I]	False
HEFRDEISVLKANNPHFDKIFEKANQLDDDIKTAEQQNASDAEVSHMKKQKLKLKDEIHSMIIEYREK [H24A]	False
HEFRDEISVLKANNPHFDKIFEKHNQLDDDIKTAEQQNASDAEVSHMKKQMLKLKDEIHSMIIEYREK [K51M]	True
HEFRAEISVLKANNPHFDKIFEKHNQLDDDIKTAEQQNASDAEVSHMKKQKLKLKDEIHSMIIEYREK [D5A]	False
HEFRDEISVLKANNPHFDKIFEKYNQLDDDIKTAEQQNASDAEVSHMKKQKLKLKDEIHSMIIEYREK [H24Y]	True
HEFRDEISVLKANNPHFDKIFEKHNQLDDDIKTAEQQNSSDAEVSHMKKQKLKLKDEIHSMIIEYREK [A39S]	False
HEFSDEISVLKANNPHFDKIFEKHNQLDDDIKTAEQQNASDAEVSHMKKQKLKLKDEIHSMIIEYREK [R4S]	True
HEFRDEISVLKANNPHFDKIFEKHNQLDDDIKTAEQQNASDAEVSHMKKQKLKLKEEIHSMIIEYREK [D56E]	True
HEFRDEISVLKAHNPHFDKIFEKHNQLDDDIKTAEQQNASDAEVSHMKKQKLKLKDEIHSMIIEYREK [N13H]	False
HEFRDEISVLKANNPHFDKIFEKHNQLDDDIKTAEQQNASDAEVSHMKKLKLKLKDEIHSMIIEYREK [Q50L]	True
HEFRDEISVLKANNPHFDKIFEKHNQLDDDIKTAEQQNASDAEVSHMKKQKLKLKDEIHSMIIEYRES [K68S]	False
HEFRDEISVLKANNPHFDKIFEKHNQLDDEIKTAEQQNASDAEVSHMKKQKLKLKDEIHSMIIEYREK [D30E]	False
HEFRDEISVLKANNPHFDKIFEKHNQLDDDIKTAEQQNASDAEVSHMKKQKLKLWDEIHSMIIEYREK [K55W]	True
HEFRDEISVLKANNPHFDKIFEKHNQLDDDIKTAEQQNASDAYVSHMKKQKLKLKDEIHSMIIEYREK [E43Y]	True
HEFRDEISVLKANNPHFDKIFEKHNQLDDDIKTAEQQSASDAEVSHMKKQKLKLKDEIHSMIIEYREK [N38S]	False
